test system: PC-3 prostate; assay: NCI-60 one-dose screen, 48 h (100 = growth as untreated, 0 = no growth, -100 = all killed); conditions: 10 µM unless noted
About 83,000 compounds went through this panel and 20% of them were active in at least one assay; those are over-represented in the sample as a whole.
Threshold 30%: growth strictly smaller gives rule met, otherwise rule not met.

Compound	Assay System	Class
N=C(N)c1ccc(-c2ccc(-c3ccc(Cl)cc3Cl)s2)cc1F	PC-3 prostate	rule met
COc1ccc(/C=C/C(=O)c2ccc(Nc3nc(Nc4ccc(F)cc4)nc(Nc4ccc(Cl)cc4)n3)cc2)cc1	PC-3 prostate	rule not met
O=C1/C(=C/c2cccc([N+](=O)[O-])c2)COc2ccc(O)cc21	PC-3 prostate	rule not met

For Cc1nc2sc(C(=O)Nc3ccc(Cl)cc3)c(N)c2cc1C(O)c1ccccc1 (stereo unspecified) , is the recorded growth below the cut-off of 30%?
rule met
